molecular target: Bcl-XL (Homo sapiens); experiment: Inhibition of Bcl-XL (disruption of Bcl-XL/Bim interaction); format: binding; conditions: compound at 50 μM
Result Type: inhibition at 50 µM (%)
Your answer should be a plain number; it is taken to be in %.

Reference set (4 entries):
Can you look up the measured inhibition at 50 µM of CN(C)C(=O)c1cccc(-c2ccc(S(=O)(=O)NC(=O)c3ccc(CN4C(=O)C(c5ccc(F)cc5F)=C(c5ccc(F)cc5F)C4=O)cc3)cc2)c1 [SZ34TA42] for me?
58

Okay, and COc1cccc(CN(CCSc2ccccc2)Cc2ccc(S(=O)(=O)NC(=O)Cn3c4ccccc4c4ccccc43)cc2)c1 [SZ17TA15] ?
12

Okay, and COc1cc2c(cc1OC)C(c1ccccc1)N(Cc1ccc(S(=O)(=O)NC(=O)c3ccc(-c4ccc(F)cc4)cc3)cc1)CC2 (stereo not shown) [SZ8TA14] ?
13.9

Okay, and Cn1cc(C(=O)C2CCCCC2)c2cc(C(=O)NS(=O)(=O)c3ccc(-c4ccc(C(C)(C)C)cc4)cc3)ccc21 [SZ11TA40] ?
58.7

Now consider the entry below.
Can you look up the measured inhibition at 50 µM of O=C(NS(=O)(=O)c1ccc(CN(CCSc2ccccc2)Cc2c(F)cccc2Cl)cc1)c1ccc(CCc2ccccn2)cc1 [SZ15TA17] for me?
60

----------
molecular target: Bcl-XL (Homo sapiens); assay: Inhibition of Bcl-XL (disruption of Bcl-XL/Bim interaction); type: binding; details: compound at 25 μM
Give label 1 when the value for % Inhibition (25 μM) Bcl-XL is at least 8%. Give label 0 when it is less.

Record excerpt, results attached:
Does the compound COc1cccc(CN(CCSc2ccccc2)Cc2ccc(S(=O)(=O)NC(=O)c3ccc4c(c3)c(C(=O)C3CCCCC3)cn4C)cc2)c1 [SZ17TA40] have recorded % Inhibition (25 μM) Bcl-XL that is 8% or more?
label 0

Okay, and COc1cccc(CN(CCSc2ccccc2)Cc2ccc(S(=O)(=O)NC(=O)c3ccc(-c4ccc(F)cc4)cc3)cc2)c1 [SZ17TA14] ?
label 1

Okay, and [N-]=[N+]=NS(=O)(=O)c1ccc(CN(CCSc2ccccc2)Cc2ccc(S(=O)(=O)NC(=O)c3ccc(-c4ccc(F)cc4)cc3)cc2)cc1 [SZ9TA14] ?
label 1

Okay, and Cn1cc(C(=O)C2CCCCC2)c2cc(C(=O)NS(=O)(=O)c3ccc(CN(CCSc4ccccc4)Cc4ccc(S(N)(=O)=O)cc4)cc3)ccc21 [SZ10TA40] ?
label 0

Okay, and Cn1cc(C(=O)c2cccs2)c2cc(C(=O)NS(=O)(=O)c3ccc(CN(CCSc4ccccc4)Cc4ccc5c(c4)OCO5)cc3)ccc21 [SZ31TA45] ?
label 0

Okay, and O=C(NS(=O)(=O)c1ccc(CN(CCSc2ccccc2)Cc2c(F)cccc2Cl)cc1)c1ccc(OC(F)(F)F)cc1 [SZ15TA8] ?
label 0

Okay, next one:
Does the compound O=C(NS(=O)(=O)CCN(CCSc1ccccc1)Cc1ccc2c(c1)OCO2)c1ccc2c(ccn2Cc2ccc(C(F)(F)F)cc2C(F)(F)F)c1 [SZ28TA30] have recorded % Inhibition (25 μM) Bcl-XL that is 8% or more?
label 1

----------
biological target: Mcl-1 (Homo sapiens); experiment: Inhibition of Mcl-1 (disruption of Mcl-1/Bim interaction); type: binding; details: compound at 50 μM
Sequence (Q07820 whole entry, species assumed): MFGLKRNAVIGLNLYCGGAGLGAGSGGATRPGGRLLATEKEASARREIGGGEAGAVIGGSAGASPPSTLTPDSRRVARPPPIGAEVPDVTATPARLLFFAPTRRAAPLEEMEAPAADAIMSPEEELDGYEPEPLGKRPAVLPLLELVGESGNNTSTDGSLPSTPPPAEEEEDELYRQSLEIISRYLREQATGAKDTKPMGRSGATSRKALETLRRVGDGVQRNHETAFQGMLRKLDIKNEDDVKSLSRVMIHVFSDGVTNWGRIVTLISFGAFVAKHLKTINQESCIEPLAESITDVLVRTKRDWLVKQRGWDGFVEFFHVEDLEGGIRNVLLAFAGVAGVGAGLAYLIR
# % Inhibition (50 μM) Mcl-1 per entry
Your answer should be a plain number; it is taken to be in %.

Reference set (5 entries):
Can you look up the measured % Inhibition (50 μM) Mcl-1 of O=C(NS(=O)(=O)CCN(CCSc1ccccc1)Cc1ccc2c(c1)OCO2)c1ccc2c(ccn2Cc2ccc(C(F)(F)F)cc2C(F)(F)F)c1 for me?
60.5

Okay, and COc1cc2c(cc1OC)C(c1ccccc1)N(Cc1ccc(S(=O)(=O)NC(=O)c3ccc(Cc4ccc(OC)c(OC)c4OC)cc3)cc1)CC2 (centres unmarked) ?
79.2

Okay, and NS(=O)(=O)c1ccc(CN(CCSc2ccccc2)Cc2ccc(S(=O)(=O)NC(=O)Cn3c4ccccc4c4ccccc43)cc2)cc1 ?
37.4

Okay, and NS(=O)(=O)c1ccc(CN(CCSc2ccccc2)Cc2ccc(S(=O)(=O)NC(=O)CC3Sc4ccccc4NC3=O)cc2)cc1 (centres unmarked) ?
64.1

Okay, and Cc1nc(-c2ccccc2)sc1C(=O)NS(=O)(=O)c1ccc(-c2ccc(Oc3ccccc3)cc2)cc1 ?
87.2

Others:
Can you look up the measured % Inhibition (50 μM) Mcl-1 of COc1cccc(CN(CCSc2ccccc2)Cc2ccc(S(=O)(=O)NC(=O)c3ccc(-c4ccc(F)cc4)cc3)cc2)c1 for me?
46.7

Okay, and CC(C)(C)c1ccc(-c2ccc(S(=O)(=O)NC(=O)c3ccc4c(ccn4Cc4ccc(C(F)(F)F)cc4C(F)(F)F)c3)cc2)cc1 ?
63.6

Okay, and O=C(NS(=O)(=O)c1ccc(CN2CCN(c3ccccc3)CC2)cc1)c1ccc(-c2ccc(F)cc2)cc1 ?
24.4

Okay, and Cn1cc(C(=O)c2cccs2)c2cc(C(=O)NS(=O)(=O)CCN(CCSc3ccccc3)Cc3ccc4c(c3)OCO4)ccc21 ?
54.0

Okay, and CCOc1ccc(-c2ccc3c(c2)c(C(=O)NS(=O)(=O)c2ccc(CNc4cccc([N+](=O)[O-])c4)cc2)cn3C)cc1F ?
21.5

Okay, and COc1cccc(CN(CCSc2ccccc2)Cc2ccc(S(=O)(=O)NC(=O)c3ccc(Cc4ccc(OC)c(OC)c4OC)cc3)cc2)c1 ?
74.1

Okay, and O=C(NS(=O)(=O)c1ccc(CN(CCSc2ccccc2)Cc2c(F)cccc2Cl)cc1)c1ccc(-c2ccc(F)cc2)cc1 ?
58.8

----------
target: Bcl-XL (Homo sapiens, UniProt Q07817); assay: Inhibition of Bcl-XL (disruption of Bcl-XL/Bim interaction); type: binding; conditions: compound at 50 μM
Sequence (Q07817 whole entry, species assumed): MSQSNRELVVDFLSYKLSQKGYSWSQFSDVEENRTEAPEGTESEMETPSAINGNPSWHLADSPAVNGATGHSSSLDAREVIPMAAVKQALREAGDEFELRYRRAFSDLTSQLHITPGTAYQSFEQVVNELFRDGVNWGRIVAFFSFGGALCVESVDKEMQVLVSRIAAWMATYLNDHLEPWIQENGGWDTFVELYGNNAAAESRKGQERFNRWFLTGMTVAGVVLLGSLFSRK
Result Type: % Inhibition (50 μM) Bcl-XL (%)
Your answer should be a plain number; it is taken to be in %.

Can you look up the measured % Inhibition (50 μM) Bcl-XL of COc1cccc(CN(CCSc2ccccc2)Cc2ccc(S(=O)(=O)NC(=O)c3ccc(CCc4ccccn4)cc3)cc2)c1 for me?
58.4

Now consider the entry below.
Can you look up the measured % Inhibition (50 μM) Bcl-XL of O=C(NS(=O)(=O)c1ccc(CN(CCSc2ccccc2)Cc2c(F)cccc2Cl)cc1)c1ccc(OC(F)(F)F)cc1 for me?
12.4

----------
# % Inhibition (25 μM) Bcl-XL per entry
biological target: Bcl-XL (Homo sapiens); assay: Inhibition of Bcl-XL (disruption of Bcl-XL/Bim interaction); type: binding; details: compound at 25 μM
Your answer should be a plain number; it is taken to be in %.

Request - read-out % Inhibition (25 μM) Bcl-XL | tested on Bcl-XL (Homo sapiens) | compound O=C(NS(=O)(=O)c1ccc(CN(CCSc2ccccc2)Cc2c(F)cccc2Cl)cc1)c1ccc(-c2ccc(F)cc2)cc1
31.1

Okay, and NS(=O)(=O)c1ccc(CN(CCSc2ccccc2)Cc2ccc(S(=O)(=O)NC(=O)c3cccc(NCCc4ccccc4)c3)cc2)cc1 ?
9.9

Okay, and O=C(NS(=O)(=O)c1ccc(NCCSc2ccccc2)c([N+](=O)[O-])c1)c1ccc(CCc2ccccn2)cc1 ?
83.7

Okay, and NS(=O)(=O)c1ccc(CN(CCSc2ccccc2)Cc2ccc(S(=O)(=O)NC(=O)CC3Sc4ccccc4NC3=O)cc2)cc1 (stereo not shown) ?
17.4

Okay, and COc1cccc(CN(CCSc2ccccc2)Cc2ccc(S(=O)(=O)NC(=O)c3ccc(CCc4ccccn4)cc3)cc2)c1 ?
68.1

Others:
Request - read-out % Inhibition (25 μM) Bcl-XL | tested on Bcl-XL (Homo sapiens) | compound O=C(NS(=O)(=O)c1ccc(-c2cc3ccccc3s2)cc1)c1ccc(CN2C(=O)C(c3ccc(F)cc3F)=C(c3ccc(F)cc3F)C2=O)cc1
21.8

----------
target: Mcl-1 (Homo sapiens); assay: Inhibition of Mcl-1 (disruption of Mcl-1/Bim interaction); format: binding; conditions: compound at 50 μM
Result Type: % Inhibition (50 μM) Mcl-1 (%)
Your answer should be a plain number; it is taken to be in %.

Reference set (10 entries):
Request - read-out % Inhibition (50 μM) Mcl-1 | tested on Mcl-1 (Homo sapiens) | compound COc1ccccc1-c1ccc(C(=O)NS(=O)(=O)c2ccc(-c3ccc(C(F)(F)F)cc3)cc2)cc1
80.9

Okay, and COc1ccc(Cc2ccc(C(=O)NS(=O)(=O)c3ccc(-c4ccc(Oc5ccccc5)cc4)cc3)cc2)c(OC)c1OC ?
76.4

Okay, and NS(=O)(=O)c1ccc(CN(CCSc2ccccc2)Cc2ccc(S(=O)(=O)NC(=O)c3ccc4oc(-c5ccccc5)cc4c3)cc2)cc1 ?
12.4

Okay, and COc1ccccc1-c1ccc(C(=O)NS(=O)(=O)c2ccc(CN(CCSc3ccccc3)Cc3ccc(S(N)(=O)=O)cc3)cc2)cc1 ?
57.3

Okay, and O=C(NS(=O)(=O)CCN1CCC(Cc2ccccc2)CC1)c1ccc2c(ccn2Cc2ccc(C(F)(F)F)cc2C(F)(F)F)c1 ?
11.4

Okay, and [N-]=[N+]=NS(=O)(=O)c1ccc(CN(CCSc2ccccc2)Cc2ccc(S(=O)(=O)NC(=O)c3ccc(-c4ccc(F)cc4)cc3)cc2)cc1 ?
42.5

Okay, and COc1cccc(CN(CCSc2ccccc2)Cc2ccc(S(=O)(=O)NC(=O)c3ccc(-c4ccccn4)cc3)cc2)c1 ?
93.6

Okay, and COc1ccc(Cc2ccc(C(=O)NS(=O)(=O)c3ccc(CN(CCSc4ccccc4)Cc4c(F)cccc4Cl)cc3)cc2)c(OC)c1OC ?
70.8

Okay, and COc1cccc(CN(CCSc2ccccc2)Cc2ccc(S(=O)(=O)NC(=O)c3ccc4c(c3)c(C(=O)c3cccs3)cn4C)cc2)c1 ?
34.5

Okay, and CN(CCc1ccccc1)Cc1ccc(S(=O)(=O)NC(=O)c2ccc(C(c3c[nH]c4ccccc34)c3c[nH]c4ccccc34)cc2)cc1 ?
16.2

Others:
Request - read-out % Inhibition (50 μM) Mcl-1 | tested on Mcl-1 (Homo sapiens) | compound CC1(C)CCN(c2ccc(C(=O)NS(=O)(=O)c3ccc(CNc4cccc([N+](=O)[O-])c4)cc3)cc2)CC1
54.1

Okay, and NS(=O)(=O)c1ccc(CN(CCSc2ccccc2)Cc2ccc(S(=O)(=O)NC(=O)c3cccc(NCCc4ccccc4)c3)cc2)cc1 ?
63.4

Okay, and COc1cc2c(cc1OC)C(c1ccccc1)N(Cc1ccc(S(=O)(=O)NC(=O)c3ccc(N4CCC(C)(C)CC4)cc3)cc1)CC2 (centres unmarked) ?
24.9
